Origin of values: patent US20260125451A1

- system-name: T1, APRIL (Acro Biosystems, Cat: APL-H52D1) (UniProt O75888 115-250, limits assumed)
- T1 construct: also called ARPIL; A proliferation-inducing ligand
- T1 sequence (looked up): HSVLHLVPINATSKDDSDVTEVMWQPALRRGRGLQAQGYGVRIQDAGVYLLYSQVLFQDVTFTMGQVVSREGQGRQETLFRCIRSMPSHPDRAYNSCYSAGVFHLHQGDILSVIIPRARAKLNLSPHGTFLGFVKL
- procedure-text: ELISA, APRIL coated, anti-human Fc-HRP, OD450
experimental-readout: Emax (nM)
Quick note: give the figure in nM, leave out the unit.

Please fill in: Emax reported for B575704 (Fc fusion, TACI-BCMA fusion protein; also called BCMA-ECD-TACI-T2-Fc) MLQMAGQCSQNEYFDSLLHACIPCQLRCSSNTPPLTCQRYCNASVTNSVKGTNASRVDQEERFPQGLWTGVAMRSCPEEQYWDPLLGTCMSCKTICNHQSQRTCAAFCRSLSCRKEQGKFYDHLLRDCISCASICGQHPKQCAYFCENKLRSPVNLPPELDKTHTCPPCPAPEAEGAPSVFLFPPKPKDTLMISRTPEVTCVVVDVSHEDPEVKFNWYVDGVEVHNAKTKPREEQYNSTYRVVSVLTVLHQDWLNGKEYKCKVSNKALPSSIEKTISKAKGQPREPQVYTLPPSRDELTKNQVSLTCLVKGFYPSDIAVEWESNGQPENNYKTTPPVLDSDGSFFLYSKLTVDKSRWQQGNVFSCSVMHEALHNHYTQKSLSLSPGK = 2.68
